- Tested on: hexokinase 1 [Trypanosoma brucei]
- procedure.details: TbHK1 enzyme activity blockers – biochemical, G6PDH-coupled NADH absorbance, MLSCN library, primary screen (AID 1430)
- protocol.conditions: recombinant TbHK1, G6PDH-coupled NADH A340; at 10 µM; hits give high values
Hit rate of the full screen: of about 220,000 compounds, about 240 (0.11%) were called active. The sample holds actives, similar compounds and a random draw of the others, so the mix is not that of the screen.
outcome.measure: inhibition (%)
Quick note: give the figure in %, leave out the unit.

Enquiry: Specify reported inhibition for the molecule shown: Nc1nnnn1/N=C/c1cc([N+](=O)[O-])ccc1O
Return: -31.3

Enquiry: Specify reported inhibition for the molecule shown: Cc1cc(C)c2nc(SCC(=O)N(C)C3CCS(=O)(=O)C3)cc(C)c2c1 (stereo unspecified)
Return: -5.97

Enquiry: Specify reported inhibition for the molecule shown: Cc1cc(=O)oc(C)c1C(=O)NC1CC(C)(C)NC(C)(C)C1
Return: -4.42

Enquiry: Specify reported inhibition for the molecule shown: Cc1ccc(SC(=O)COc2ccc(C)c(C)c2)cc1
Return: 7.35

Enquiry: Specify reported inhibition for the molecule shown: COCCNC(=O)c1ccc(-n2c(SCc3cccnc3)nc3ccccc3c2=O)cc1
Return: -6.28

Enquiry: Specify reported inhibition for the molecule shown: CCc1cccc2c3c([nH]c12)C(CC)(CC(=O)O)OCC3 (stereo unspecified)
Return: -3.41

###

- System: hexokinase 1 [Trypanosoma brucei]
- procedure.details: TbHK1 enzyme activity blockers – biochemical, G6PDH-coupled NADH absorbance, MLSCN library, primary screen (AID 1430)
- protocol.conditions: recombinant TbHK1, G6PDH-coupled NADH A340; at 10 µM; hits give high values
About 240 (0.11%) of roughly 220,000 compounds were called active. The sample as a whole holds a higher share of actives than the screen did.
outcome.measure: inhibition (%)
Quick note: give the figure in %, leave out the unit.

Enquiry: Specify reported inhibition for the compound shown: O=C(COC(=O)[C@H](Cc1ccccc1)NC(=O)c1cccs1)Nc1cc(F)ccc1F
Return: 6.99

Enquiry: Specify reported inhibition for the compound shown: Cc1nn(-c2ccccc2)c(=O)c2noc(C)c12
Return: -6.64

Enquiry: Specify reported inhibition for the compound shown: CCCc1nc(-c2cc3cc(C)ccc3[nH]c2=O)no1
Return: -10.1

Enquiry: Specify reported inhibition for the compound shown: COc1ccc(OC)c(NC(=O)N[C@H](Cc2ccccc2)C(=O)NN)c1
Return: -2.36

Enquiry: Specify reported inhibition for the compound shown: Brc1ccc(-c2noc(-c3ccccc3)n2)o1
Return: -6.63

Enquiry: Specify reported inhibition for the compound shown: Cc1nc2nc[nH]n2c(=O)c1C/C=C/c1ccccc1
Return: -2.13

Enquiry: Specify reported inhibition for the compound shown: Cc1ccc(NC(=O)Nc2cc(-c3ccccc3)nn2C)cc1Cl
Return: -21.8

Enquiry: Specify reported inhibition for the compound shown: CC(C)COC(=O)n1c(=O)oc2ccc(S(=O)(=O)N3CCCCC3)cc21
Return: -6.57

Enquiry: Specify reported inhibition for the compound shown: O=S(=O)(NC1CCCCC1)c1ccc(F)c2ccccc12
Return: 2.7

Enquiry: Specify reported inhibition for the compound shown: COc1ccc(CCNC(=O)CN(c2ccccc2)S(C)(=O)=O)cc1
Return: 2.74

Enquiry: Specify reported inhibition for the compound shown: COCCCNc1nc2c(-c3cccc(C(F)(F)F)c3)nnn2c2ccccc12
Return: -3.92

Enquiry: Specify reported inhibition for the compound shown: CC1CC(C)CN(S(=O)(=O)c2ccc(C(=O)NN3CCOCC3)cc2)C1 (centres undefined)
Return: -4.58

Enquiry: Specify reported inhibition for the compound shown: C/C(=N\Nc1cccc(C(=O)O)c1)c1ccc2c(c1)Nc1ccccc1S2
Return: -4.39

Enquiry: Specify reported inhibition for the compound shown: Cc1ccc(-c2csc(NC(=O)c3cnccn3)n2)cc1C
Return: -12.7

Enquiry: Specify reported inhibition for the compound shown: Cc1ccc(/C=C/C(=O)Nc2ccc([N+](=O)[O-])c(NC(=O)/C=C/c3ccc(C)o3)c2)o1
Return: -13.6

Enquiry: Specify reported inhibition for the compound shown: Cc1ccc(CSc2nc3[nH]ncc3c(=O)[nH]2)cc1
Return: -4.89

Enquiry: Specify reported inhibition for the compound shown: Cc1cccc(C)c1NC(=O)C(c1ccccc1)N1CC(=O)Nc2ccccc21 (centres undefined)
Return: 3.26

Enquiry: Specify reported inhibition for the compound shown: O=C(c1ccc(N2CCOCC2)c([N+](=O)[O-])c1)N1CCN(S(=O)(=O)c2cccs2)CC1
Return: -0.582

Enquiry: Specify reported inhibition for the compound shown: C/C(=N/Nc1ccc(Cl)cc1)c1cnnc(-c2ccccc2)n1
Return: -3.6

Enquiry: Specify reported inhibition for the compound shown: Cc1ccc(N(C(=O)Cc2cccs2)C(C(=O)NCC2CCCO2)c2ccncc2)cc1 (centres undefined)
Return: -7.37

Enquiry: Specify reported inhibition for the compound shown: CC1CCCN(C(=O)c2ccc3c(c2)C(=O)N(CCC2=CCCCC2)C3=O)C1 (centres undefined)
Return: 9.11

Enquiry: Specify reported inhibition for the compound shown: COc1ccc(OCC(O)CNC(=O)Nc2ccc(Cl)cc2)cc1 (centres undefined)
Return: 2.73

Enquiry: Specify reported inhibition for the compound shown: C=C(C)C(=O)Nc1cccc(C2=NOC3(C2)C[C@H](C(N)=O)N(C(=O)C(c2ccccc2)c2ccccc2)C3)c1 (some centres undefined)
Return: 7.7

Enquiry: Specify reported inhibition for the compound shown: Cc1ccc(SC(C)C(=O)NCc2ccc(F)cc2)cc1 (centres undefined)
Return: 4.64

Enquiry: Specify reported inhibition for the compound shown: O=C(c1ccncc1)c1ccc([N+](=O)[O-])cc1
Return: -1.97

Enquiry: Specify reported inhibition for the compound shown: O=C(c1ccc2ccccc2n1)N1CCN(c2ccccc2Cl)CC1
Return: -6.88

Enquiry: Specify reported inhibition for the compound shown: O=C1/C(=C\Nc2ccccc2)CCN1c1ncccn1
Return: -65.9

Enquiry: Specify reported inhibition for the compound shown: CCCN1CNC(=S)N(CCc2ccccc2)C1
Return: -4.25

Enquiry: Specify reported inhibition for the compound shown: CC(=O)Nc1ccc(S(=O)(=O)N(CCc2ccccc2)CC(=O)N/N=C/c2ccc(C(=O)O)cc2)cc1
Return: -12.9

Enquiry: Specify reported inhibition for the compound shown: COC(=O)C1CCN(CC(N)=O)CC1
Return: 60.6

Enquiry: Specify reported inhibition for the compound shown: COc1ccc(/C=N/S(=O)(=O)c2ccccc2)cc1OC
Return: -6.73

Enquiry: Specify reported inhibition for the compound shown: C/C(=N/NC(=O)c1cc(Cl)ccc1O)C12CC3CC(CC(C3)C1)C2
Return: -5.54

Enquiry: Specify reported inhibition for the compound shown: S=c1nccc(-c2cc(Cl)sc2Cl)[nH]1
Return: -7.08

Enquiry: Specify reported inhibition for the compound shown: Cc1ccc(-n2nc(N)c3c(=O)oc(N(C)C)nc32)cc1
Return: 0.228

Enquiry: Specify reported inhibition for the compound shown: Cc1onc(C(=O)NCc2ccc(F)cc2)c1[N+](=O)[O-]
Return: -2.07

Enquiry: Specify reported inhibition for the compound shown: Cc1ccc(C2=N/C(=C\c3ccc(OS(=O)(=O)c4ccc(C)cc4)cc3)C(=O)O2)cc1
Return: 2.44

Enquiry: Specify reported inhibition for the compound shown: Cn1cc(/C=C/C(=O)N2CCCC(C(=O)c3ccc(C(F)(F)F)cc3)C2)cn1 (centres undefined)
Return: -9.79

Enquiry: Specify reported inhibition for the compound shown: Cc1c(C(N)=O)sc2ncn(CCOc3ccccc3)c(=O)c12
Return: -3.42

Enquiry: Specify reported inhibition for the compound shown: CCOC(=O)C1CCN(C(=O)C2(NC(=O)Nc3cccc(F)c3)CCCCC2)CC1
Return: -1.28

Enquiry: Specify reported inhibition for the compound shown: CCN(/N=C/c1ccc(N(C)C)cc1)c1nc2ccccc2[nH]1
Return: -4.95

Enquiry: Specify reported inhibition for the compound shown: CN(CC#CCC(c1ccccc1)c1ccccc1)C(C)(C)C
Return: -4.21

Enquiry: Specify reported inhibition for the compound shown: CC/C(=N\NC(=S)NC(C)C)c1ccc(OC(F)F)cc1
Return: 10.1

Enquiry: Specify reported inhibition for the compound shown: CC(=O)c1ccc(S(=O)(=O)Nc2ccc(C(=O)NCC(c3ccccc3)N(C)C)cc2)cc1 (centres undefined)
Return: -5.8

Enquiry: Specify reported inhibition for the compound shown: O=C(CSc1nnc2ccc(-c3ccncc3)nn12)N1CCCCC1
Return: -7.7
